Reference source: paper PMC7134359

- measured.target: hMT2 (Homo sapiens, UniProt P49286)
- Sequence (P49286 whole entry): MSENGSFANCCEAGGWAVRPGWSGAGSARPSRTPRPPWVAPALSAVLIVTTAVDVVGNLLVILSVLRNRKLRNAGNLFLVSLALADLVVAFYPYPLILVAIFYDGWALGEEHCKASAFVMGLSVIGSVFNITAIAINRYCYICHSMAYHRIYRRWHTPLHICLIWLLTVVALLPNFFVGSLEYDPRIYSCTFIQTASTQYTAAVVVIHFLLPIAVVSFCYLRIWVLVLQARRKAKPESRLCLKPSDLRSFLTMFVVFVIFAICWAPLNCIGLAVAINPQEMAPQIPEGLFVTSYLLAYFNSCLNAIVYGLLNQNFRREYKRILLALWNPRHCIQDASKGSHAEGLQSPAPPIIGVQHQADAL
- assay.comment: cell-based
- Format: cell-based
- cond: hMT2 pEC50, inhibition of isoproterenol-stimulated cAMP, HEK cells; agonist
property.measured: EC50
Please report the result as a number followed by the unit.

Quick one: give measured EC50 for `CN(Cc1ccncc1)c1ccnc(Cl)c1` 355 nM

Quick one: give measured EC50 for `COC(=O)c1ccc(CSc2nnc(C3CC3)[nH]2)s1` 2 nM

Now for another entry.
Quick one: give measured EC50 for `COc1ccc(Br)c(CNc2cccnc2)c1` 6.31 nM

###

The reader will find reported half-life values listed item by item below.
- assay.comment: Plasma pharmacokinetics and brain distribution
- Format: in vivo
- cond: male, C57BL/6, mouse, plasma, iv, 2 mg/kg
// note: answer is a bare numeric in min

Worked cases, half-life given:
Quick one: give measured half-life for `COc1ccc(Br)c(CNc2cccnc2)c1` 17.4

Quick one: give measured half-life for `CC(C)c1ccc(CNc2cccc(-c3nnc[nH]3)c2)cc1` 19.2

Further cases:
Quick one: give measured half-life for `Clc1ccc(CNc2cccc(-c3nnc[nH]3)c2)c(Br)c1` 16.2
